Each recorded value in this set is attributed to ChEMBL document CHEMBL5058577.

System: Fibroblast
Test: Multiplex assay against human fibroblast
Type: toxicity, cell-based
Settings: 48 h, 1 µM, compound concentration 1 uM, replicate 2
We label by threshold. Values of Population Hoechst High Intensity Objects (%) strictly beneath 4% are satisfied. Values of 4% and up are not satisfied.

CCc1cc2cc(NS(=O)(=O)c3ccc(C#N)cc3)ccc2n(CC)c1=O ... not satisfied

(Q) I wonder whether Cl.N=C(N)NC(=O)Cc1c(Cl)cccc1Cl [GUANFACINE HYDROCHLORIDE] has Population Hoechst High Intensity Objects (%) below 4%. Can you tell?
(A) satisfied

(Q) I wonder whether COC[C@@H](c1ccc(C(F)(F)F)cc1)N1CCN(C2(C)CCN(C(=O)c3c(C)ncnc3C)CC2)C[C@@H]1C.O=C(O)/C=C\C(=O)O [VICRIVIROC MALEATE] has Population Hoechst High Intensity Objects (%) below 4%. Can you tell?
(A) not satisfied

(Q) I wonder whether CCCCCC(O)/C=C/[C@H]1C(=O)CC(O)C1C/C=C\CCCC(=O)O (some centres not stated) has Population Hoechst High Intensity Objects (%) below 4%. Can you tell?
(A) satisfied

(Q) I wonder whether Cc1sc2c(c1C)C(c1ccc(Cl)cc1)=N[C@@H](CC(=O)NCCCCCCCCNC(=O)COc1cccc3c1C(=O)N(C1CCC(=O)NC1=O)C3=O)c1nnc(C)n1-2 (some centres not stated) has Population Hoechst High Intensity Objects (%) below 4%. Can you tell?
(A) not satisfied

(Q) I wonder whether CN(C)C(=O)Cn1cc(-c2ccc(-c3cncc4ccccc34)cc2)cn1 has Population Hoechst High Intensity Objects (%) below 4%. Can you tell?
(A) not satisfied

---

System: U2OS
Experiment: Multiplex assay against U2OS
Assay type: toxicity, cell-based
Settings: human, 48 h, 10 µM, compound concentration 10 uM, replicate 2
// reported Population Tubulin-Different-Phenotype (%) per item

Take a look at these entries with their results.
CN1CCN(c2cc(-c3ccccc3)nc(N)n2)CC1 ... 1%
O=C(CCCc1ccccc1)Nc1nc2ccccc2c(=O)s1 ... 5%
Cc1onc(-c2ccccc2Cl)c1C(=O)N(C)c1ccc(Cl)cc1 ... 3%

(Q) For Cc1cnc(-c2cc(N3CCN(C(=O)CCS(C)(=O)=O)CC3)ncc2Cl)c(C)c1 , what is its reported Population Tubulin-Different-Phenotype (%)?
(A) 7%

(Q) For N#Cc1cc(F)cc(-c2nc(-c3ccc(F)cn3)no2)c1 , what is its reported Population Tubulin-Different-Phenotype (%)?
(A) 2%

(Q) For CN[C@@H](C)C(=O)N[C@H](C(=O)N1CCC[C@H]1C(=O)Nc1snnc1-c1ccccc1)C1CCCCC1 , what is its reported Population Tubulin-Different-Phenotype (%)?
(A) 80%

---

System: HEK-293T
Assay: Multiplex assay against HEK293T
Type: toxicity, cell-based
Settings: human, 48 h, 10 µM, compound concentration 10 uM, replicate 1
measurement_label: Population Fragmented Nuclei (%)
Kindly answer with a numeric value in %, unit omitted.

Take a look at these entries with their results.
NCCc1cn(S(=O)(=O)c2c(Cl)nc3sccn23)c2ccccc12.O=C(O)C(=O)O ... 27
Cl.N=C(N)NC(=O)Cc1c(Cl)cccc1Cl [GUANFACINE HYDROCHLORIDE] ... 17
CCCCCC(O)/C=C/[C@H]1C(=O)CC(O)C1C/C=C\CCCC(=O)O (some centres undefined) ... 12

(Q) // fetch HEK-293T Population Fragmented Nuclei (%) for Cc1sc2c(c1C)C(c1ccc(Cl)cc1)=N[C@@H](CC(=O)NCCCCCCCCNC(=O)COc1cccc3c1C(=O)N(C1CCC(=O)NC1=O)C3=O)c1nnc(C)n1-2 (some centres undefined)
(A) 9
